assay: Clinical study: saliva and plasma samples taken in parallel, correlation of lacosamide concentrations
Type: in vivo, human
experimental setup: human, saliva, steady state, about one to two hours after last administration; read-out: concentration of lacosamide in saliva relative to the concentration in plasma
readout label: Kp

Ask: Could you share which Kp value was measured for COC[C@@H](NC(C)=O)C(=O)NCc1ccccc1 [Lacosamide] ?
Result: ~1.17

---

assay: Expected plasma Cmax at bid doses, used for individual dose adaptation
Format: in vivo
experimental setup: dose 400 mg bid
readout label: Cmax

Ask: Item under review: COC[C@@H](NC(C)=O)C(=O)NCc1ccccc1 [Lacosamide] . Reported Cmax?
Result: ~20000 ng/mL

---

assay: Expected plasma Cmax at bid doses, used for individual dose adaptation
Format: in vivo
experimental setup: dose 300 mg bid
readout label: Cmax

Ask: Quick check: Cmax of COC[C@@H](NC(C)=O)C(=O)NCc1ccccc1 [Lacosamide] ?
Result: ~15000 ng/mL

---

assay: Clinical study: saliva and plasma samples taken in parallel, correlation of lacosamide concentrations
Format: in vivo, human
experimental setup: human, saliva, regression equation with intercept 0.065; read-out: slope of Saliva concentration of lacosamide versus plasma concentration of lacosamide
readout label: Kp
In your answer, state the number alone without any accompanying words.

Ask: // returns reported Kp for input COC[C@@H](NC(C)=O)C(=O)NCc1ccccc1 [Lacosamide]
Result: 1.17

---

assay: Expected plasma Cmax at bid doses, used for individual dose adaptation
Type: in vivo
experimental setup: dose 200 mg bid
readout label: Cmax

Ask: Requested read-out: Cmax. Entry: COC[C@@H](NC(C)=O)C(=O)NCc1ccccc1 [Lacosamide]
Result: ~10000 ng/mL

---

assay: Lacosamide plasma concentration of a patient, HPLC-UV assay with internal standard
Format: in vivo
experimental setup: human, patient taking 100 mg twice a day, sample 7 h after the last administration, read-out: measured lacosamide plasma concentration
readout label: concentration at 7 h (ng/mL)
Form entry: value (ng/mL) — number only.

Ask: What does the data say about its concentration at 7 h? Entry: COC[C@@H](NC(C)=O)C(=O)NCc1ccccc1 [Lacosamide]
Result: 1900

---

assay: Expected plasma Cmax at bid doses, used for individual dose adaptation
Assay type: in vivo
experimental setup: dose 100 mg bid
Method: Based on the determination of the actual lacosamide concentration in plasma (Cmessured) measured at time t (in hours after actual administration) and the comparison with the target concentration, an individual dosing may be adapted according to the following formula dose_new = dose_old⋅(Cmax,expected ⋅e^(-0.05⋅t))/(Cmeasured ⋅e^(-0.05⋅1h)) [formula] The expected Cmax is usually at about 5, 10, 15, or 20 µg/mL for dose 100, 200, 300, or 400 mg bid.
readout label: Cmax

Ask: Which value of Cmax has been reported for COC[C@@H](NC(C)=O)C(=O)NCc1ccccc1 [Lacosamide] in the records?
Result: ~5000 ng/mL
